- Species: Rattus norvegicus
- measurementDescription: Open TG-GATES - Regimen: Daily Repeat
- Type: toxicity, organism-based, Sprague-Dawley
- Design: regimen Daily Repeat, gender Male, age 6 weeks
- reportedConditions: in vivo, po, 0 mg/kg, […], tissue Kidney, route gavage, dose level Control, time 14 day
observable: KIDNEY_L
For clarity, give the value followed by its unit.

• CN1C(=O)CCS(=O)(=O)C1c1ccc(Cl)cc1 (stereo not drawn) = 1.2 g
• CC(C)NNC(=O)c1ccncc1 = 1.1 g

Batch: KIDNEY_L for all items listed.
1. Cc1nnc2n1-c1ccc(Cl)cc1C(c1ccccc1Cl)=NC2
2. CCOc1ccc(NC(C)=O)cc1
3. CN/C(=N/CCSCc1nc[nH]c1C)NC#N
4. CN(C)CCC(c1ccc(Cl)cc1)c1ccccn1 (stereo not drawn)
5. CNC(=C[N+](=O)[O-])NCCSCc1ccc(CN(C)C)o1
6. NC1=NC(=O)C(c2ccccc2)O1 (stereo not drawn)
7. CCCc1cc(=O)[nH]c(=S)[nH]1

1: 1.2 g; 2: 1.3 g; 3: 1.3 g; 4: 1.1 g; 5: 1.2 g; 6: 1.3 g; 7: 1.1 g

For each entry beneath this line, provide reported KIDNEY_L.
1. Nc1c2c(nc3ccccc13)CCCC2
2. Brc1ccccc1
3. O=C(OC[C@H]1O[C@@H](OC(=O)c2cc(O)c(O)c(OC(=O)c3cc(O)c(O)c(O)c3)c2)[C@H](OC(=O)c2cc(O)c(O)c(OC(=O)c3cc(O)c(O)c(O)c3)c2)[C@@H](OC(=O)c2cc(O)c(O)c(OC(=O)c3cc(O)c(O)c(O)c3)c2)[C@@H]1OC(=O)c1cc(O)c(O)c(OC(=O)c2cc(O)c(O)c(O)c2)c1)c1cc(O)c(O)c(OC(=O)c2cc(O)c(O)c(O)c2)c1
4. COC(=O)C1=C(C)NC(C)=C(C(=O)OC)C1c1ccccc1[N+](=O)[O-]

1.2 g
1.2 g
1.2 g
1.2 g

###

- Organism: Rattus norvegicus
- measurementDescription: Open TG-GATES - Regimen: Single
- Type: toxicity, organism-based, Sprague-Dawley
- Parameters: regimen Single, gender Male, age 6 weeks
- reportedConditions: in vivo, po, 100 mg/kg, 6 h, tissue Plasma, route gavage, dose level Low
Consider the following compounds; for each one, report its LDH.
Give bare numbers, in IU/L.

Field: example entries. Status: answers known.
* O=C(OC[C@H]1O[C@@H](OC(=O)c2cc(O)c(O)c(OC(=O)c3cc(O)c(O)c(O)c3)c2)[C@H](OC(=O)c2cc(O)c(O)c(OC(=O)c3cc(O)c(O)c(O)c3)c2)[C@@H](OC(=O)c2cc(O)c(O)c(OC(=O)c3cc(O)c(O)c(O)c3)c2)[C@@H]1OC(=O)c1cc(O)c(O)c(OC(=O)c2cc(O)c(O)c(O)c2)c1)c1cc(O)c(O)c(OC(=O)c2cc(O)c(O)c(O)c2)c1 | 102.8
* COC(=O)C1=C(C)NC(C)=C(C(=O)OC)C1c1ccccc1[N+](=O)[O-] | 72.8
* Cc1nnc2n1-c1ccc(Cl)cc1C(c1ccccc1Cl)=NC2 | 70
* CNC(=C[N+](=O)[O-])NCCSCc1ccc(CN(C)C)o1 | 168.8

Here is another compound to look at.
Report LDH, nothing else, for this compound: CN/C(=N/CCSCc1nc[nH]c1C)NC#N 180

// data source = ChEMBL document CHEMBL3885861
